// cross-source set; read-out = pIC50; system = UniProtKB P43490
Scale for pIC50: -log10 of concentration given in mol/L; no unit attached.

Inquiry: Look up and report pIC50, with UniProtKB P43490 as system, for CC(C)OCC(=O)N1CCC(c2ccc(C(=O)NCc3ccn4ccnc4c3)cc2)CC1
Reply text: 9.55

Inquiry: Look up and report pIC50, with UniProtKB P43490 as system, for CC(C)(C#N)Cn1cc(-c2ccc(C(=O)NCc3ccn4ccnc4c3)s2)cn1
Reply text: 9.44

Inquiry: Look up and report pIC50, with UniProtKB P43490 as system, for O=C(CCc1cccnc1)NCCCCCCn1ccc2ccncc21
Reply text: 5.67

Inquiry: Look up and report pIC50, with UniProtKB P43490 as system, for COC1(Cn2ncc(-c3ccc(C(=O)NCc4ccn5ccnc5c4)s3)c2C)CCCC(C)(C)C1 (centres unmarked)
Reply text: 9.26

Inquiry: Look up and report pIC50, with UniProtKB P43490 as system, for COCCC(=O)N(CCc1ccc2c(c1)OCO2)c1ncc(C(=O)NCCCn2ccnc2)s1
Reply text: 8.67

###

// cross-source set; read-out = pIC50; system = UniProt:P43490
Scale for pIC50: -log10 of concentration given in mol/L; no unit attached.

Inquiry: Tell us which pIC50 value is on record for O=C(NCc1ccn2ccnc2c1)Nc1ccc(C2CCN(C(=O)c3ccccc3)C2)cc1 (stereo not drawn)
Reply text: 9.65

Inquiry: Tell us which pIC50 value is on record for CC(C)(O)Cn1cc(-c2ccc(C(=O)NCc3ccc4ncnn4c3)s2)cn1
Reply text: 8.27

Inquiry: Tell us which pIC50 value is on record for CC(C)N1CCN(CCN(Cc2ccc(F)cc2)c2ncc(C(=O)NCCCn3ccnc3)s2)CC1
Reply text: 7.71

Inquiry: Tell us which pIC50 value is on record for O=C(NCc1ccn2ccnc2c1)c1ccc(O[C@H]2CCN(C(=O)C3CC3)C2)cc1
Reply text: 8.97

Inquiry: Tell us which pIC50 value is on record for Cc1cc(CC(=O)N(C[C@H]2CCCO2)c2ncc(C(=O)NCc3ccn4ccnc4c3)s2)nn1C
Reply text: 9.30

Inquiry: Tell us which pIC50 value is on record for O=C(NCc1ccn2ccnc2c1)Nc1ccc(NS(=O)(=O)c2ccccc2-c2ccccc2)cc1
Reply text: 9.77

Inquiry: Tell us which pIC50 value is on record for CC(C)(O)C(=O)N1CC(Oc2ccc(NC(=O)C3CN(c4ccnnc4)C3)cc2)C1
Reply text: 7.06

Inquiry: Tell us which pIC50 value is on record for O=C(NCc1ccc2nccn2c1)c1cnc(N(CC2CCOCC2)C(=O)C2CCOC2)s1 (stereo not drawn)
Reply text: 8.69

Inquiry: Tell us which pIC50 value is on record for CCOCCNC(=O)N(Cc1ccc(F)cc1)c1ncc(C(=O)NCCCn2ccnc2)s1
Reply text: 9.00

Inquiry: Tell us which pIC50 value is on record for O=C(NCc1ccn2ccnc2c1)Nc1ccc(C2CN(C(=O)C3CCOCC3)C2)cc1
Reply text: 9.51

Inquiry: Tell us which pIC50 value is on record for O=C(NCCCCC1CCN(C(=O)CCC(F)(F)F)CC1)Nc1ccc2nccn2c1
Reply text: 9.16

Inquiry: Tell us which pIC50 value is on record for CC(C)(O)Cn1cc(-c2ccc(C(=O)NCc3ccn4ccnc4c3)cc2)cn1
Reply text: 9.25

Inquiry: Tell us which pIC50 value is on record for Cn1nccc1-c1ccc(C(=O)NCc2ccn3ccnc3c2)s1
Reply text: 9.52

Inquiry: Tell us which pIC50 value is on record for CN1CCC(C(=O)Nc2ccc(NC(=O)Nc3ccc4nccn4c3)cc2)CC1
Reply text: 9.77

Inquiry: Tell us which pIC50 value is on record for O=C(NCc1ccn2ccnc2c1)c1ccc(C2CN(C(=O)c3ccncn3)C2)cc1
Reply text: 8.97

Inquiry: Tell us which pIC50 value is on record for Cc1ccc(C(=O)N2CCC(c3ccc(C(=O)NCc4ccn5ccnc5c4)cc3)CC2)cc1
Reply text: 9.77

Inquiry: Tell us which pIC50 value is on record for COCCN(C(=O)Cc1ccc(C#N)cc1)c1ncc(C(=O)NCCCn2ccnc2)s1
Reply text: 9.67

Inquiry: Tell us which pIC50 value is on record for Cc1ncccc1N1CC(C(=O)Nc2ccc(C3CCN(C(=O)c4ccc(C(F)(F)F)cc4)CC3)cc2)C1
Reply text: 6.72

Inquiry: Tell us which pIC50 value is on record for O=C(NCCCn1ccnc1)c1cnc(N2C[C@H](CN3C(=O)c4ccccc4C3=O)OC2=O)s1
Reply text: 8.99

Inquiry: Tell us which pIC50 value is on record for CC(C)(C)CCN1CCC(c2ccc(NC(=O)C3CN(c4cccnc4)C3)cc2)CC1
Reply text: 8.90

Inquiry: Tell us which pIC50 value is on record for Cn1nc(C(=O)N2CCC3(CC2)CC3CNC(=O)c2cc3ccncc3o2)cc1C(F)(F)F (stereo not drawn)
Reply text: 6.45

Inquiry: Tell us which pIC50 value is on record for CCOCCN1CCN(CC(=O)N(Cc2ccc(F)cc2)c2ncc(C(=O)NCCCn3ccnc3)s2)CC1
Reply text: 8.50

Inquiry: Tell us which pIC50 value is on record for O=C(NCc1ccc2nccn2c1)c1cnc(N(CC2CCOCC2)C(=O)C2CCOCC2)s1
Reply text: 8.53

Inquiry: Tell us which pIC50 value is on record for COCCN1CCN(c2ncc(C(=O)NCc3ccn4ccnc4c3)s2)CC1
Reply text: 9.54

Inquiry: Tell us which pIC50 value is on record for COCCN(C(=O)Cc1ccc(N)cc1)c1ncc(C(=O)NCCCn2ccnc2)s1
Reply text: 9.71

Inquiry: Tell us which pIC50 value is on record for COc1ccccc1C(=O)N1CCC(c2ccc(C(=O)NCc3ccn4ccnc4c3)cc2)C1 (stereo not drawn)
Reply text: 9.04

Inquiry: Tell us which pIC50 value is on record for O=C(Nc1ccc(OC2CCN(C(=O)C3CCCCC3)CC2)cc1)C1CN(c2cccnc2)C1
Reply text: 8.99

Inquiry: Tell us which pIC50 value is on record for NC(=O)C1CCCN(C(=O)N(Cc2ccc(F)cc2)c2ncc(C(=O)NCCCn3ccnc3)s2)C1 (stereo not drawn)
Reply text: 8.27

Inquiry: Tell us which pIC50 value is on record for Cc1ncccc1N1CC(C(=O)Nc2ccc(C3CCN(C(=O)CCC(C)C)CC3)cc2)C1
Reply text: 6.95

Inquiry: Tell us which pIC50 value is on record for CC(C)C(C)C(=O)N1CC(c2ccc(C(=O)NCc3ccn4ccnc4c3)cc2)C1 (stereo not drawn)
Reply text: 9.07

Inquiry: Tell us which pIC50 value is on record for CC[C@H](C)C(=O)N1CC[C@H](Oc2ccc(NC(=O)NCc3ccn4ccnc4c3)cc2)C1
Reply text: 9.77

Inquiry: Tell us which pIC50 value is on record for CCCC(=O)N1CCC(Oc2ccc(NC(=O)C3CN(c4cccnc4)C3)cc2)CC1
Reply text: 9.10

Inquiry: Tell us which pIC50 value is on record for O=C(Nc1ccc(OC2CN(C(=O)C3CCC3)C2)cc1)C1CN(c2ccnnc2)C1
Reply text: 7.63

###

// cross-source set; read-out = log10(IC50); system = NAMPT (Homo sapiens)
The base-10 logarithm of IC50, taken with IC50 in nM, is what appears here.

Inquiry: Tell us which log10(IC50) value is on record for O=C(Nc1ccc(C2CCN(C(=O)c3cccc(F)c3)CC2)cc1)C1CN(c2cccnn2)C1
Reply text: -0.20

Inquiry: Tell us which log10(IC50) value is on record for O=C(NCc1ccn2ccnc2c1)c1ccc(C2CCN(C(=O)[C@H]3CCCO3)CC2)cc1
Reply text: -0.66

Inquiry: Tell us which log10(IC50) value is on record for CCC(C)(C)C(=O)N1CCC(c2ccc(NC(=O)C3CN(c4cccnc4C)C3)cc2)CC1
Reply text: 1.73

Inquiry: Tell us which log10(IC50) value is on record for O=C(NCc1ccn2ccnc2c1)c1ccc(C2CCN(C(=O)c3ccc(F)cc3F)C2)s1 (centres unmarked)
Reply text: -0.08

Inquiry: Tell us which log10(IC50) value is on record for O=C(NCCCn1ccnc1)c1cnc(N(Cc2ccc(F)cc2)C(=O)NCC2COCCO2)s1 (centres unmarked)
Reply text: -0.22

Inquiry: Tell us which log10(IC50) value is on record for CC[C@H](C)C(=O)N1CCC(c2ccc(C(=O)NCc3ccn4ccnc4c3)cc2)CC1
Reply text: -0.73

Inquiry: Tell us which log10(IC50) value is on record for O=C(Nc1ccc(C2CCN(C(=O)c3ccccc3)CC2)cc1)C1CN(c2cccnc2)C1
Reply text: -0.12

###

// cross-source set; read-out = IC50; system = NAMPT (Homo sapiens, UniProt P43490)
Sequence (P43490 whole entry): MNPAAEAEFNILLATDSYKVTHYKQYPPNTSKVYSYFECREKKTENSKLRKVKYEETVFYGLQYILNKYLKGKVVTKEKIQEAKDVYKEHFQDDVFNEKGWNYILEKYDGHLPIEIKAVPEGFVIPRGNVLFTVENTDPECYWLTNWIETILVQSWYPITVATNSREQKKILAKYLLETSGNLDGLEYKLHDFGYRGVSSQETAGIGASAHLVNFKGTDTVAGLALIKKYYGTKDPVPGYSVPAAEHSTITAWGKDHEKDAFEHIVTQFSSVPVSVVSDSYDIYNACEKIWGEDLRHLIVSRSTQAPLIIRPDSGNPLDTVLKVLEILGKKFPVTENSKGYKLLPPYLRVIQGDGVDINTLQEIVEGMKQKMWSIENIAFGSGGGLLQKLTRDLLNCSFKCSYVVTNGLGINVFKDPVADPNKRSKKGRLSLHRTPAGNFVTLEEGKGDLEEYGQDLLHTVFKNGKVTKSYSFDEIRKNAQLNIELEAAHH
Reply with just the number (in nM).

Inquiry: Tell us which IC50 value is on record for COCCNC(=O)N(CC1CCCO1)c1ncc(C(=O)NCc2ccn3ccnc3c2)s1 (centres unmarked)
Reply text: 0.424

Inquiry: Tell us which IC50 value is on record for O=C(NCc1ccn2ccnc2c1)c1ccc(C2CCN(C(=O)C3CCOC3)CC2)cc1 (centres unmarked)
Reply text: 0.546

Inquiry: Tell us which IC50 value is on record for O=C(NCc1ccn2ccnc2c1)c1ccc(Oc2ccccc2)cc1
Reply text: 0.263

Inquiry: Tell us which IC50 value is on record for O=C(Nc1ccc(C2CCN(C(=O)c3ccccc3Cl)CC2)cc1)C1CN(c2cccnn2)C1
Reply text: 0.642

Inquiry: Tell us which IC50 value is on record for O=C(NCc1ccc2nccn2c1)c1ccc(-c2cnn(CC3CCCOC3)c2)s1 (centres unmarked)
Reply text: 0.263

Inquiry: Tell us which IC50 value is on record for O=C(NCc1ccc2nccn2c1)c1ccc(C2=CCN(C(=O)CC3CCCO3)CC2)cc1 (centres unmarked)
Reply text: 0.991

Inquiry: Tell us which IC50 value is on record for CS(=O)(=O)N1CCC(c2ccc(C(=O)NCc3ccn4ccnc4c3)cc2)C1 (centres unmarked)
Reply text: 0.627

Inquiry: Tell us which IC50 value is on record for O=C(NCc1ccn2ccnc2c1)c1ccc(C2CCN(C(=O)c3ccc(OC(F)(F)F)cc3)CC2)cc1
Reply text: 0.777

Inquiry: Tell us which IC50 value is on record for COc1ncccc1N1CC(C(=O)Nc2ccc(C3CCN(C(=O)C(C)(C)O)CC3)cc2)C1
Reply text: 71.1

Inquiry: Tell us which IC50 value is on record for CC[C@H](C)C(=O)N1CC(Oc2ccc(NC(=O)C3CN(c4ccnnc4)C3)cc2)C1
Reply text: 21.8

Inquiry: Tell us which IC50 value is on record for O=C(Nc1ccc(OC2CCN(C(=O)C(F)(F)c3ccccc3)CC2)cc1)C1CN(c2cccnn2)C1
Reply text: 1.14

Inquiry: Tell us which IC50 value is on record for O=C(NCc1ccn2ccnc2c1)Nc1ccc(C2CN(C(=O)[C@@H]3CCCO3)C2)cc1
Reply text: 0.41

Inquiry: Tell us which IC50 value is on record for O=C(NCc1ccn2ccnc2c1)c1ccc(C2CCN(C(=O)C3CC3)CC2)s1
Reply text: 0.351

Inquiry: Tell us which IC50 value is on record for O=C(CCc1cccnc1)NCCCCCCn1ccc2cccnc21
Reply text: 2400
